- testName: Water solubility of cloquintocet salts at 20° C.
- conditionSet: solubility solution, water, 20° C.
Neat pH reference
endpointLabel: Neat pH

1. CC(O)CN (stereo not shown) ... 7.4
2. CC(O)CNCC(C)O (stereo not shown) ... 6.4
3. NCCO ... 6.3
4. CN(C)CCO ... 5.7

* * *

AVEFA Control 21 DAA (% Control) reference
- Test system: wild oats (Avena fatua L., AVEFA)
- testName: Greenhouse evaluation, control of wild oats
- Type: in vivo
- conditionSet: pyroxsulam 4.7 g ai/ha, pyroxsulam:cloquintocet (AE) 1:2.1, postemergence spray
- Procedure: A peat based potting soil, Metro-mix 360, (produced by Sun Gro Horticulture Canada CM Ltd) was used as the soil media for this test. […] Herbicides were applied with a track sprayer manufactured by Allen Machine Works and located in building 306, room E1-483, at the Dow AgroSciences Indianapolis, Ind. […] Appropriate amounts of formulated product were added to vials as calculated by the software package ARM8 (Gylling Data Management Inc.). […]
endpointLabel: AVEFA Control 21 DAA (% Control)

1. CCCCCC(C)OC(=O)COc1ccc(Cl)c2cccnc12 (centres unmarked) [mexyl, cloquintocet-mexyl, reference compound] ... 84 % Control
2. CC(C)N ... 99 % Control
3. COc1cc(OC)n2nc(NS(=O)(=O)c3c(C(F)(F)F)ccnc3OC)nc2n1 ... 98 % Control
4. CC(O)CN (centres unmarked) ... 90 % Control
5. O=C(O)COc1ccc(Cl)c2cccnc12 ... 99 % Control
